PROTOCOL DESCRIPTION: Inhibition of Plasmodium falciparum falcipain-2 after 12 hrs by fluorescence spectroscopy-based on-bead assay
Parameters: concentration or dose not given beside the values
CONDITION CONTEXT: concentration not given here
Peptide text beside a SMILES is read from it.
Entries and their inhibition values follow.
REPORTED METRIC: inhibition (%)

compound="CC[C@H](C)[C@H](NC(=O)[C@H](Cc1ccccc1)NC(=O)/C=C/C(=O)N[C@@H](C)C(=O)NCC(=O)N[C@@H](Cc1ccccc1)C(=O)O)C(=O)N[C@@H](CC(C)C)C(=O)N[C@H](C(N)=O)C(C)C (HELM PEPTIDE1{[C[C@H](NC(=O)/C=C/C(=O)[*:2])C(=O)NCC(=O)N[C@@H](Cc1ccccc1)C(=O)O].F.I.L.V.[am]}$$$$V2.0)" reported_metric=inhibition unit_annotation=% observed_measurement=51
compound="CC(C)C[C@H](NC(=O)[C@H](Cc1ccccc1)NC(=O)/C=C/C(=O)N[C@@H](C)C(=O)NCC(=O)N[C@@H](Cc1ccccc1)C(=O)O)C(=O)N[C@H](C(=O)N[C@H](C(N)=O)C(C)C)C(C)C (HELM PEPTIDE1{[C[C@H](NC(=O)/C=C/C(=O)[*:2])C(=O)NCC(=O)N[C@@H](Cc1ccccc1)C(=O)O].F.L.V.V.[am]}$$$$V2.0)" reported_metric=inhibition unit_annotation=% observed_measurement=36
compound="CC(C)[C@H](NC(=O)[C@H](C)NC(=O)[C@H](Cc1ccccc1)NC(=O)[C@H](CCC(N)=O)NC(=O)/C=C/C(=O)N[C@@H](C)C(=O)NCC(=O)N[C@@H](Cc1ccccc1)C(=O)O)C(N)=O (HELM PEPTIDE1{[C[C@H](NC(=O)/C=C/C(=O)[*:2])C(=O)NCC(=O)N[C@@H](Cc1ccccc1)C(=O)O].Q.F.A.V.[am]}$$$$V2.0)" reported_metric=inhibition unit_annotation=% observed_measurement=25
